# credit: PubChem BioAssay AID1159580

Test: chemical genetic growth profiling, strain panel (AID 1159580);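 note: tested at 20 µM; growth read once vehicle control cultures reached saturation at 30 °C; 1 = growth at the plate median or of vehicle wells; lower values mean less growth of the strain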
Conditions: S. cerevisiae deletion strains, growth OD, locus YJR043C, strain POL32
About 2,000 (36%) of roughly 5,500 compounds were called active. Roughly 18% stayed inconclusive and do not appear here. Cut-off read from the data, not from the text of the source: active = normalized growth mostly below about 0.91 (no sharp cut-off); inconclusive = no clear call, values can overlap the other calls; inactive = mostly above about 0.92. Some of the results follow.
Possible outcomes: active, inactive

compound: CCN(CC)CCCC(C)Nc1c2ccc(Cl)cc2nc2ccc(OC)cc12 (stereo not drawn)
category label: active

compound: CCN(CC)CCNC(=O)c1cc(Br)c(N)cc1OC
category label: inactive

compound: CN1CCC(=C2c3ccccc3CC(=O)c3sccc32)CC1
category label: inactive

* * *

Some molecules, each annotated with its measured normalized growth.
Assay: chemical genetic growth profiling, strain panel (AID 1159580);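 note: tested at 20 µM; growth read once vehicle control cultures reached saturation at 30 °C; 1 = growth at the plate median or of vehicle wells; lower values mean less growth of the strain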
Details: S. cerevisiae deletion strains, growth OD, locus YER167W, strain BCK2, hits give low values
In all, about 5,500 compounds went through this assay and about 2,000 (36%) were called active. Not shown: some 18% with an inconclusive outcome. This is one part of the list.

molecule: c1ccc(N=Nc2ccccc2)cc1
normalized growth: 0.998
--
molecule: C[N+](C)(C)CCOC(N)=O
normalized growth: 1.01
--
molecule: C[N+](C)(C)CCCCCC[N+](C)(C)C
normalized growth: 0.994
--
molecule: CC1CC2C3CCC4=CC(=O)C=C[C@]4(C)[C@@]3(F)[C@@H](O)C[C@]2(C)[C@@]1(O)C(=O)CO (stereo partly drawn)
normalized growth: 1
--
molecule: CC(C)(OC(=O)c1ccccc1)[C@@H]1Cc2cc3ccc(=O)oc3cc2O1
normalized growth: 0.991
--
molecule: COc1cc2c(cc1OC)[C@@H]1C(=O)c3ccc4oc(C(C)C)cc4c3O[C@@H]1CO2
normalized growth: 1.02
--
molecule: CNCCc1ccccn1
normalized growth: 1.01
--
molecule: CC1(C)OC(=O)NC1=O
normalized growth: 0.997
--
molecule: CC(=O)OCC(=O)[C@@]1(O)CCC2C3CCC4=CC(=O)CC[C@]4(C)C3C(=O)C[C@@]21C (stereo partly drawn)
normalized growth: 1.01
--
molecule: O=C1C=CC(=C(c2ccc(O)cc2)c2ccc(O)cc2)C=C1
normalized growth: 0.993
--
molecule: CC(=O)OCC[N+](C)(C)C
normalized growth: 1.01
--
molecule: OCC(O)C(O)C(O)CO (stereo not drawn)
normalized growth: 1.01
--
molecule: CN(C)CC/C=C1\c2ccccc2Sc2ccc(Cl)cc21
normalized growth: 1
--
molecule: CCS(=O)CCSP(=O)(OC)OC (stereo not drawn)
normalized growth: 1.02
--
molecule: CCOC(=O)C(Cc1ccc(O)cc1)NC(C)=O (stereo not drawn)
normalized growth: 1.02
--
molecule: CN1CCC(=C2c3ccccc3CC(=O)c3sccc32)CC1
normalized growth: 1
--
molecule: CC1=C(CC(=O)O)c2cc(F)ccc2/C1=C\c1ccc(S(C)=O)cc1 (stereo not drawn)
normalized growth: 1.01
--
molecule: COC1=CC(=O)C[C@@H](C)[C@]12Oc1c(Cl)c(OC)cc(OC)c1C2=O
normalized growth: 0.981

* * *

Assay: chemical genetic growth profiling, strain panel (AID 1159580);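 note: tested at 20 µM; growth read once vehicle control cultures reached saturation at 30 °C; 1 = growth at the plate median or of vehicle wells; lower values mean less growth of the strain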
Settings: S. cerevisiae deletion strains, growth OD, locus YOR144C, strain elg1, hits give low values
Among all 5,500 compounds or so, about 2,000 (36%) were called active. Not shown: some 18% with an inconclusive outcome. The list shows a part of the results.

molecule: CC(=O)N[C@@H](CC(C)C)C(=O)O
normalized growth: 0.996
--
molecule: CCOC(=O)C(Cc1ccc(O)cc1)NC(C)=O (stereo not given)
normalized growth: 1.01
--
molecule: CC[C@H](/C=C/C(C)C1CCC2C3CCC4=CC(=O)CC[C@]4(C)C3CC[C@]12C)C(C)C (stereo not given in full)
normalized growth: 0.994
--
molecule: COc1cc2c(cc1OC)[C@@H]1C(=O)c3ccc4c(c3O[C@@H]1CO2)C=CC(C)(C)O4
normalized growth: 0.979
--
molecule: COc1cc2c(cc1OC)[C@@H]1C(=O)c3ccc4oc(C(C)C)cc4c3O[C@@H]1CO2
normalized growth: 1.02
--
molecule: COc1cc2c(cc1OC)C1C(=O)c3c(cc4c(c3O)C=CC(C)(C)O4)OC1CO2 (stereo not given)
normalized growth: 1.01
--
molecule: CC1CC2C3CC(F)C4=CC(=O)C=CC4(C)C3(F)C(O)CC2(C)C1(O)C(=O)CO (stereo not given)
normalized growth: 1.02
--
molecule: COC1=CC(=O)C[C@@H](C)[C@]12Oc1c(Cl)c(OC)cc(OC)c1C2=O
normalized growth: 0.988
--
molecule: COC1=C(OC)C(=O)C(C/C=C(\C)CC/C=C(\C)CC/C=C(\C)CC/C=C(/C)CC/C=C(\C)CC/C=C(\C)CC/C=C(\C)CC/C=C(\C)CC/C=C(\C)CCC=C(C)C)=C(C)C1=O
normalized growth: 0.987
--
molecule: CC(C)(OC(=O)c1ccccc1)[C@@H]1Cc2cc3ccc(=O)oc3cc2O1
normalized growth: 0.973
--
molecule: CNC(C)[C@H](O)c1ccccc1 (stereo not given in full)
normalized growth: 0.995
--
molecule: CC(CCc1ccccc1)NC(C)C(O)c1ccc(O)cc1 (stereo not given)
normalized growth: 0.992
--
molecule: CS(=O)(=O)c1ccc(C2=C(c3ccccc3)C(=O)OC2)cc1
normalized growth: 0.975
--
molecule: COc1ccc2c(C)cc(=O)oc2c1
normalized growth: 1.02
--
molecule: CC(NCCc1ccc(O)cc1)C(O)c1ccc(O)cc1 (stereo not given)
normalized growth: 0.987
--
molecule: COc1cc2c(cc1OC)[C@@H]1C(=O)c3ccc(O)c(CC=C(C)C)c3O[C@@H]1CO2
normalized growth: 0.993
--
molecule: COP(=O)(OC)OC=C(Cl)Cl
normalized growth: 0.984
--
molecule: COc1cc2c(cc1OC)C1C(=O)c3c(OC)cc4c(c3OC1CO2)CCC(C)(C)O4 (stereo not given)
normalized growth: 0.994
--
molecule: C=C1C2CC[C@H]3[C@]4(C)C[C@H](OC5OC(CO)C(OS(=O)(=O)O)C(OS(=O)(=O)O)C5OC(=O)CC(C)C)C[C@@H](C(=O)O)[C@H]4CC[C@]3(C2)[C@H]1O (stereo not given in full)
normalized growth: 0.99
--
molecule: CC(=O)OC(C)(C)[C@@H]1Cc2cc3ccc(=O)oc3cc2O1
normalized growth: 1
--
molecule: CN[C@@H](C)[C@@H](O)c1ccccc1
normalized growth: 0.987
--
molecule: OCCN1C[C@@H](O)[C@@H](O)C(O)C1CO (stereo not given in full)
normalized growth: 1
--
molecule: Cc1cccc(C)c1OCC(C)N (stereo not given)
normalized growth: 0.991
--
molecule: COc1cc2c(cc1OC)C1C(=O)c3c(O)cc4c(c3OC1CO2)C=CC(C)(C)O4 (stereo not given)
normalized growth: 1.01
--
molecule: CC(=O)C1CCC2C3CC(=O)C4=CC(=O)CCC4(C)C3CCC12C (stereo not given)
normalized growth: 0.988
